- Tested on: IGROV
Reported values of log10(GI50) for individual entries
PROPERTY_MEASURED: log10(GI50) (log10 of the value in µM)

COMPOUND | PROPERTY_MEASURED | OBSERVED_VALUE
C/C=C\[C@H](C)[C@H]1OC1(C)[C@@H](O[Si](C)(C)C(C)(C)C)[C@@H](CO[Si](C)(C)C(C)(C)C)C(=O)[C@H](CO[Si](C)(C)C(C)(C)C)[C@H](CC(=O)CC)O[Si](C)(C)C(C)(C)C (stereo partly shown) [Compound 19a] | log10(GI50) | 1.08
C/C=C\[C@H](C)[C@H]1OC1(C)[C@@H](O)[C@@H](CO)C(=O)[C@@H](CO)[C@H](O)CC(=O)CC (stereo partly shown) | log10(GI50) | 1.31
C/C=C\[C@H](C)[C@H]1OC1(C)[C@@H](O[Si](C)(C)C(C)(C)C)[C@@H](CO)C(=O)[C@@H](CO)[C@H](O)CC(=O)CC (stereo partly shown) [31b + 31d] | log10(GI50) | 1.22
C/C=C\[C@H](C)[C@H]1OC1(C)[C@@H](O[Si](C)(C)C(C)(C)C)[C@@H](COC(C)=O)C(=O)[C@H](COC(C)=O)[C@H](O)CC(=O)CC (stereo partly shown) | log10(GI50) | 0.62
C/C=C\[C@H](C)[C@H]1OC1(C)[C@@H](O[Si](C)(C)C(C)(C)C)[C@@H](COC(C)=O)C(=O)[C@H](CO)[C@@H](O)CC(=O)CC (stereo partly shown) | log10(GI50) | 0.89
C/C=C\[C@H](C)[C@H]1OC1(C)[C@@H](O[Si](C)(C)C(C)(C)C)[C@@H](CO)C(=O)[C@H](CO)[C@@H](O)CC(=O)CC (stereo partly shown) [20a + 20c] | log10(GI50) | 1.15
C/C=C\[C@H](C)[C@H]1O[C@@]1(C)[C@@H](O)[C@@H](COC(C)=O)C(=O)[C@H](CO)[C@@H](O)CC(=O)CC | log10(GI50) | -1.19

Origin of measurements: patent US7521478B2
